I'd appreciate it if you could supply RLU values for the items below.
Biological target: T1, CD71 apical domain (human, UniProt P02786 189-383, limits assumed)
T1 construct: domain: apical domain
T1 sequence (P02786 189-383 limits assumed): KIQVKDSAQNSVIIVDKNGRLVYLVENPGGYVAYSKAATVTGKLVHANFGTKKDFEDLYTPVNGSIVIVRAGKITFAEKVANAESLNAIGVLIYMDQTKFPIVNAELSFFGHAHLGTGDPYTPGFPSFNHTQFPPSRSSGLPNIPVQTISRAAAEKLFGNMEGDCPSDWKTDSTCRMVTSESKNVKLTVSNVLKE
Test: solution ELISA screen (luminescence)
Numbers only, in RLU.

{"BINDER": "SEQ ID NO 242 (designed binder, not shown: small tags and cut ends) MLPAPKNLVVSRVTEDSARLSWTAPDAAFDSFYIAYAEPRPDGEAIQLLVPGSERSYDLTGLKPGTEYSVLIHGVKGGLLSSPLYAAFTT", "RLU / RLU": "4.9e+06"}
{"BINDER": "SEQ ID NO 253 (designed binder, not shown: small tags and cut ends) MLPAPKNLVVSRVTEDSARLSWTAPDAAFDSFYIAYAEPRPDGEAIILHVPGSERSYDLTGLKPGTEYSVLIHGVKGGLLSSPLDAYFTT", "RLU / RLU": "7.21e+06"}
{"BINDER": "SEQ ID NO 231 (designed binder, not shown: small tags and cut ends) MLPAPKNLVVSRVTEDSARLSWTAPDAAFDSFFIGYLEPQPPGEAIHLYVPGSERSYDLTGLKPGTEYNVTIQGVKGGFPSDPLDAVFTT", "RLU / RLU": "6.83e+06"}

Now take the following binder into account.
Can you look up the measured RLU of SEQ ID NO 243 (designed binder, not shown: small tags and cut ends) MLPAPKNLVVSRVTEDSARLSWTAPDAAFDSFFIGYLEPQPPGEAIHLAVPGSERSYDLTGLKPGTEYNVTIQGVKGGFPSVPLAAVFTT for me?
3.19e+06
